ASSAY OVERVIEW: S. cerevisiae growth modulation with rapamycin, primary screen, strain BY4716, OD600, 96 h (AID 1091); note: test concentration not given here
CONDITION NOTES: higher = more signal, called active from +8 up or from −8 down
Hi, to clarify the labels: 1 covers z-score from 1 upward, 0 covers anything below 1.

// query Is it the case that CCCCC(CC)C(O)C1C=CC2C(=O)N(Cc3ccccc3)C(=O)C2N1n1cnnc1 (configuration not stated) has z-score reaching or exceeding 1?
// result 0

// query Is the recorded value of z-score equal to or greater than 1 for this molecule? NCCCCCCNC(=O)[C@@H]1C[C@@H]2C(=O)NCC(=O)N2[C@@H]1c1ccc(O)cc1
// result 0

// query Answer whether z-score of C=CCOC(=O)[C@H]1[C@@H]2C(=O)O[C@@H](c3ccccc3)[C@@H](c3ccccc3)N2[C@@H](c2ccc(OCCOC(=O)[C@@H]3C[C@@H]4C(=O)N[C@@H](CCCCNC(C)=O)C(=O)N4[C@@H]3c3ccc(O)cc3)cc2)[C@]12C(=O)Nc1ccccc12 is greater than or equal to 1.
// result 1

// query Hi team, for [N-]=[N+]=Nc1ccccc1[C@H]1OC(c2ccc(OCCCO)cc2)=N[C@@]1(CCS(=O)(=O)c1ccccc1)C(=O)NCC(O)CO (some centres not stated) , is the recorded z-score at or above 1?
// result 0

// query Test whether the molecule CC(C)[Si](C#Cc1ccc(Oc2ccccc2)cc1)(O[Si](C#Cc1ccc(Oc2ccccc2)cc1)(C(C)C)C(C)C)C(C)C records z-score of 1 or higher.
// result 1

// query Record [N-]=[N+]=NCc1ccccc1C[C@]1(C(N)=O)COC(c2ccc(OCCCO)cc2)=N1 ; criterion: z-score no lower than 1. Met?
// result 0

// query Decide: z-score of C=CCOC(=O)[C@H]1[C@@H]2C(=O)O[C@@H](c3ccccc3)[C@@H](c3ccccc3)N2[C@@H](c2ccc(OCCOC(=O)[C@H]3C[C@H]4C(=O)N[C@@H](CCCC[N+](C)(C)C)C(=O)N4[C@H]3c3ccc(O)cc3)cc2)[C@]12C(=O)Nc1ccc(I)cc12 >= 1?
// result 0

// query For this molecule, is measured z-score 1 or higher? CN1C(=O)C2C=CC(C(O)C#Cc3ccccc3)N(N3CCCCC3)C2C1=O (configuration not stated)
// result 0

// query Is z-score for O=C(c1ccccc1)N1C(=O)[C@]2(COC(c3ccc(OCCCO)cc3)=N2)Cc2ccccc21 at or above 1?
// result 1

// query Is z-score at least 1? Consider CC(C)C(O)C1C=CC2C(=O)NC(=O)C2N1Nc1ccc(Cl)cc1Cl (configuration not stated)
// result 1

// query Could you tell me if the measured z-score of C=CC1(C(=O)OC)CC=C(C(=O)OC)CC1 (configuration not stated) reaches 1 or more?
// result 0

###

ASSAY OVERVIEW: inhibitors of hydroxyurea-induced Chk1 phosphorylation, primary screen, imaging, HeLa, phospho-Chk1 nuclear intensity (AID 1187); note: test concentration not given here
CONDITION NOTES: hydroxyurea-induced phospho-Chk1 immunofluorescence imaging, higher = more signal
z-score class ranges: lower band (below -0.4), central band (-0.4 to below 0.1), upper band (0.1 or more)

// query Dear colleague, I would appreciate it if you could identify the bin for [N-]=[N+]=Nc1ccccc1[C@@H]1OC(c2ccc(OCCCO)cc2)=N[C@]1(CCS(=O)(=O)c1ccccc1)C(N)=O and reply at your convenience.
// result central band

// query In plain terms, what class is O=C(NCCN1CCOCC1)[C@@H]1c2ccccc2C(=O)N(C2CCCCC2)[C@H]1c1ccc(CO)cc1 ?
// result lower band

// query # classify by z-score band: [N-]=[N+]=NCc1ccccc1[C@@H]1OC(c2ccc(OCCCO)cc2)=N[C@]1(Cc1ccccc1)C(=O)NCC(O)CO (some centres not stated)
// result upper band

// query Entry NCCCCCCNC(=O)[C@@H]1C[C@@H]2C(=O)NCC(=O)N2[C@@H]1c1ccc(O)cc1 belongs to which category?
// result upper band

// query The entry to classify is COC(=O)[C@@]1(CCC(=O)OC(C)(C)C)N=C(c2ccc(OCCCO)cc2)O[C@H]1c1ccccc1N=[N+]=[N-] ; which class holds it?
// result central band

// query Hello team, could you let me know which band the following compound falls into: N#Cc1ccc(NN2C(C(O)C(c3ccccc3)c3ccccc3)C=CC3C(=O)N(c4ccccc4)C(=O)C32)cc1 (configuration not stated)
// result upper band

// query Pick a category. Item: C=CCN1C(=O)[C@]2(O[C@H](CCn3cc([C@H](O)c4ccccc4)nn3)[C@@H]([Si](C)(C)c3ccc(OC)cc3)[C@@H]2C)c2ccccc21
// result lower band

// query Categorize the following entry: COC(=O)[C@@]1(Cc2ccc(OC)cc2)[C@H]2c3cc(C(=O)N(C)C)n(CCc4ccccn4)c3C[C@H]2CN1C(=O)c1ccccc1
// result central band

// query Assign a category based on measured z-score for O=C(N1CCCCC1)[C@]1(Cc2ccccc2)N=C(c2ccc(OCCCO)cc2)O[C@@H]1c1ccccc1 and give only the class name.
// result lower band

// query Tag the class for C[N+](C)(C)CCCC[C@@H]1NC(=O)[C@H]2C[C@@H](C(=O)NCCCCCCNC(=O)CS)[C@@H](c3cccc(OCCO)c3)N2C1=O
// result upper band

// query Consider C=C(/C(=C/C[C@H](OC(C)=O)c1ccc(CO)o1)c1cc(C(=O)OC)ccc1OC)C(C)C . To which z-score class does it belong?
// result central band

// query Could you place CCCC[C@H]1OB(O)C[C@H]2C1=C(COC)Cn1c(=O)n(-c3ccccc3)c(=O)n12 in its proper category? Many thanks.
// result lower band

// query Category lookup for the compound O=C1c2ccccc2[C@](Cc2ccccc2I)(C(=O)NCC(F)(F)F)[C@H](c2ccc(CO)cc2)N1Cc1ccccc1Cl
// result lower band

// query Which of the defined bands does the recorded z-score of O=C1C2C=CC(C(O)c3cc(C(F)(F)F)cc(C(F)(F)F)c3)N(n3cnnc3)C2C(=O)N1Cc1ccccc1 (configuration not stated) sit within?
// result upper band

// query Exam item: assign CCCC[C@H]1OB(O)C[C@H]2C1=C(COC)C[C@H]1C(=O)N(C)C(=O)[C@H]12 to the correct category.
// result upper band

// query Category lookup for the compound C=CC(=C)[C@H]1Oc2ccccc2S(=O)(=O)N2CCC[C@@H]12
// result upper band

###

EXPERIMENTAL TARGET: Focal adhesion kinase 1 (Homo sapiens)
ASSAY OVERVIEW: small-molecule microarray binders of FAK, primary screen, biochemical, 635/667 nm fluorescence, BSA, DTT (AID 1130);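 note: composite of spot emission at 667 nm and signal to noise over triplicate slides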
CONDITION NOTES: PTK2 binding, 635 nm fluorescence, higher = more signal
The label depends only on composite z-score: 1.0 if it is at least 0.8, 0.0 if it is smaller.

// query State whether the measured composite z-score reaches 0.8, counting equality as reaching it, for [N-]=[N+]=Nc1ccccc1[C@H]1OC(c2ccc(OCCCO)cc2)=N[C@@]1(CCS(=O)(=O)c1ccccc1)C(=O)NCC(O)CO (some centres not stated)
// result 0.0

// query Decide: is the reported value of composite z-score for O=C1c2ccccc2[C@](Cc2ccccc2I)(C(=O)NCC(F)(F)F)[C@H](c2ccc(CO)cc2)N1Cc1ccccc1Cl equal to or greater than 0.8?
// result 1.0

// query State whether the measured composite z-score reaches 0.8, counting equality as reaching it, for C=CC[C@]1(C(=O)NCCCOC)N=C(c2ccc(OCCCO)cc2)O[C@H]1c1ccccc1CN=[N+]=[N-]
// result 1.0

// query Say whether O=C(NCCN1CCOCC1)[C@@H]1c2ccccc2C(=O)N(C2CCCCC2)[C@H]1c1ccc(CO)cc1 shows composite z-score of 0.8 or more.
// result 0.0

// query Determine whether this compound has composite z-score no lower than 0.8: CCCCCCc1nc(-c2ccc(OC)nc2)cc2c1[Si](C(C)C)(C(C)C)O[C@H]2c1ccccc1
// result 0.0

// query Quick check: does O=C1[C@@]23C=C(Br)[C@H](C[C@@H]2CCOC3)[C@@]12CO2 have composite z-score greater than or equal to 0.8?
// result 0.0

###

EXPERIMENTAL TARGET: Streptavidin (Streptomyces avidinii)
ASSAY OVERVIEW: streptavidin binders on small-molecule microarray, primary screen, artefact control for SMM compound annotation, biophysical, 635/667 nm fluorescence (AID 1147);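 note: signal reflects streptavidin binding to arrayed compounds as a control protein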
CONDITION NOTES: streptavidin binding, higher = more signal
I'd appreciate it if you could supply composite z-score values for the items below.
Answer using only a numeral; do not append any unit.

Lab book: composite z-score of O=C1c2ccccc2[C@](Cc2ccccc2I)(C(=O)NCCN2CCOCC2)[C@H](c2ccc(CO)cc2)N1C1CCCCC1 noted as 0.934

// composite z-score lookup, compound = COC(=O)[C@@]1(Cc2ccc(OC)cc2)[C@H]2c3cc(C(=O)N4CCCC4)n(CCN4CNCC4=O)c3C[C@H]2CN1C(=O)c1ccccc1 , result: -0.002

# compound COc1ccc(CCNC(=O)[C@@]2(Sc3ccc(C)cc3)CC(=O)N(C(C)C)[C@@H]2c2ccc(CO)cc2I)cc1 ; its composite z-score = -0.738

For reference, reported composite z-score for Cc1ccccc1C(O)C1C=CC2C(=O)N(c3ccccc3)C(=O)C2N1Nc1ccc(C(C)C)cc1 (centres undefined) stands at 1.26

Please fill in: composite z-score reported for COC(=O)C(CC#Cc1ccc2c(c1)[C@]1(C(=O)N2)[C@H](C(=O)Nc2nc3ccccc3s2)[C@H]2C(=O)O[C@H](c3ccccc3)[C@H](c3ccccc3)N2[C@@H]1c1ccccc1OCCO)C(=O)OC = 0.679

// recorded composite z-score for Cc1nc2cc(Br)ccc2c(=O)o1 : 0.498

For record COc1ccc(CCNC(=O)[C@@H]2c3ccccc3C(=O)N(Cc3ccccc3Cl)[C@H]2c2ccc(CO)cc2)cc1 the listed composite z-score is -0.001

Memo: COCCOC(=O)N1C(=O)[C@@]2(c3cc(C#CC4(O)CCCCCC4)ccc31)[C@H](c1ccccc1OCCO)N1[C@H](c3ccccc3)[C@H](c3ccccc3)OC(=O)[C@H]1[C@@H]2C(=O)N1CCN(c2ncccn2)CC1 , reported composite z-score: 0.356

Looking up COC(=O)[C@@]1(Cc2ccc(F)cc2)[C@H]2c3cc(C(=O)N4CCCC4)n(CCCNc4ncc(C(F)(F)F)cc4Cl)c3C[C@H]2CN1C(=O)c1ccccc1 , I see its composite z-score listed as 0.919

The compound listed as [N-]=[N+]=NCc1ccccc1C[C@]1(C(N)=O)COC(c2ccc(OCCCO)cc2)=N1 has a reported composite z-score of 0.468

For C=CCNC(=O)[C@@H]1[C@H]2C(=O)O[C@H](c3ccccc3)[C@H](c3ccccc3)N2[C@H](c2ccc(OCCO)cc2)[C@@]12C(=O)Nc1ccc(C#CCC(C(=O)OC)C(=O)OC)cc12 the compound record lists composite z-score as 0.316

Looking up COC(=O)[C@@]1(Cc2ccc(OC)cc2)[C@@H]2C(=CC(=O)[C@H]2CC(=O)C(=O)N2CCCC2)CN1C(=O)c1ccccc1 , I see its composite z-score listed as 0.571

The measured composite z-score associated with [N-]=[N+]=Nc1ccccc1[C@@H]1OC(c2ccc(OCCCO)cc2)=N[C@]1(CCS(=O)(=O)c1ccccc1)C(N)=O reads 2.03

Data point: CCCC[C@@H]1C[C@H]1[C@@H](NC(=O)C(C)(C)C)c1ccc(C(F)(F)F)cc1 ; composite z-score = 0.0267

The compound identified as CC(C)OC(=O)C=C1C[C@@H](c2ccccn2)O[C@@H](c2ccccn2)O1 registered its composite z-score at 0.546

Input CCOC(=O)[C@H]1C/C=C/C[C@H](C(=O)OCC)C(=O)O[C@H]2[C@@H](OC)O[C@H](CO)[C@@H](OC(=O)c3c(OC)cccc3OC)[C@@H]2OC1=O . Output composite z-score: 0.475

The compound C=C[C@@H](COC(=O)OC(C)(C)C)N(Cc1ccc(OC)cc1)S(=O)(=O)c1ccc(Br)cc1 showed composite z-score equal to 0.603

Lab book: composite z-score of C=C(C)[C@@H]1CC=C(C(O)C2C=CC3C(=O)N(C)C(=O)C3N2Nc2ccccc2)CC1 (some centres undefined) noted as 0.178

Entry CC[C@@H]1C=C(C(=O)O)[C@H](c2ccc(Br)cc2)N1S(=O)(=O)c1ccc(C)cc1 ; composite z-score = 0.791

Per the record, CCc1cccc(NC(=O)O[C@H]2[C@H](OC(=O)Nc3ccccc3-c3ccccc3)[C@@H](OC(=O)Nc3ccccc3-c3ccccc3)[C@@H](OC)O[C@@H]2CO)c1 has composite z-score of 0.751

Memo: Cc1ccc(S[C@]2(C(=O)O)CC(=O)N(C(C)C)[C@@H]2c2ccc(CO)cc2I)cc1 , reported composite z-score: 0.513

The compound listed as C=CCN1C(=O)[C@@]2(Cc3ccccc31)N=C(c1ccc(OCCCO)cc1)O[C@H]2c1ccccc1 has a reported composite z-score of 0.0866

Reported composite z-score ( O=C(c1ccccc1)N1Cc2ccccc2C[C@@]2(COC(c3ccc(OCCCO)cc3)=N2)C1=O ) = 0.298

get_value(item= O=C1C[C@@](C(=O)NCCN2CCOCC2)(c2ccc([N+](=O)[O-])cc2)[C@@H](c2ccc(CO)cc2I)N1CC12CC3CC(CC(C3)C1)C2 , readout=composite z-score) returns 0.489

Consider CN1C(=O)C2C=CC(C(O)c3ccc([N+](=O)[O-])cc3)N(N3CCCCC3)C2C1=O (centres undefined) . Its measured composite z-score is 0.901

Quick note, composite z-score for CC(=O)NCCCC[C@@H]1NC(=O)[C@H]2C[C@@H](C(=O)NCCCCCCNC(=O)CS)[C@@H](c3ccc(O)cc3)N2C1=O landed at -1.22

# composite z-score of COCCOC(=O)N1C(=O)[C@@]2(c3cc(C#Cc4ccc(OC)cc4)ccc31)[C@H](c1ccc(O)cc1)N1[C@H](c3ccccc3)[C@H](c3ccccc3)OC(=O)[C@H]1[C@@H]2C(=O)N1CCc2cc(OC)c(OC)cc2C1 = 1.25

CC(C)NC(=O)[C@@]1(c2ccc([N+](=O)[O-])cc2)CC(=O)N(C2CCCCC2)[C@@H]1c1ccc(CO)cc1I yielded composite z-score of -0.154

# compound CC(C)c1ccc(NN2C(C(O)c3ccc(B(O)O)cc3)C=CC3C(=O)N(c4ccccc4)C(=O)C32)cc1 (centres undefined) ; its composite z-score = 1.26
